EXPERIMENT_DESCRIPTION: Cmax in neutropenic BALB/cAnNCr mouse infected with Staphylococcus aureus at 1 mg/kg, sc administered as single dose after 6 hrs of infection
Format: ADME, organism-based
Design: dose 1 mg/kg, route subcutaneous
CONDITION_SET: in vivo
PARAMETER: Cmax (ng/mL)
Kindly provide the numeric value in ng/mL only, without the unit symbol.

query: For the molecule shown here, "Nc1nc(/C(=N/O)C(=O)N[C@@H]2C(=O)N3C(C(=O)O)=C(/C=C4\CCN([C@@H]5CCNC5)C4=O)CS[C@H]23)ns1" , give the reported Cmax.
result: 1740

----------
EXPERIMENT_DESCRIPTION: Tmax in neutropenic BALB/cAnNCr mouse infected with Staphylococcus aureus at 10 mg/kg, sc administered as single dose after 6 hrs of infection
Format: ADME, organism-based
Set-up: dose 10 mg/kg, route subcutaneous
CONDITION_SET: in vivo
PARAMETER: Tmax (min)
Kindly provide the numeric value in min only, without the unit symbol.

query: For the compound shown here, "Nc1nc(/C(=N/O)C(=O)N[C@@H]2C(=O)N3C(C(=O)O)=C(/C=C4\CCN([C@@H]5CCNC5)C4=O)CS[C@H]23)ns1" , give the reported Tmax.
result: 9

// data source = ChEMBL document CHEMBL1275429
